system: LXRa homodimer (NR concentration 270 nM); experiment: PBM binding z-score (relative to random genomic background probes); higher = stronger binding; sequences stand for … in GC…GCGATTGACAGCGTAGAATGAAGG
PBM binding z-score below -0.1 gives Not met; PBM binding z-score at or above it gives Met.

Would you say "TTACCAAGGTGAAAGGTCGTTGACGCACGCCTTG" shows PBM binding z-score at minimum -0.1?
Met

Item: "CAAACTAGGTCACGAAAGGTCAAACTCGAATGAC"
Met

Item: "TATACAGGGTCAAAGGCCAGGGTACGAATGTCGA"
Met

Item: "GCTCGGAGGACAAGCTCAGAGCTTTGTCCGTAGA"
Not met

Item: "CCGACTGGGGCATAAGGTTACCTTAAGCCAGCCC"
Not met

Item: "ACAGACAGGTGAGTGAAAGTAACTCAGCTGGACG"
Not met

Item: "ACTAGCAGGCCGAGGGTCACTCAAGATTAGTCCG"
Not met

Item: "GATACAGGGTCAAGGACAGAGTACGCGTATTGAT"
Met

Item: "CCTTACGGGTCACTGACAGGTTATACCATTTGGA"
Met

Item: "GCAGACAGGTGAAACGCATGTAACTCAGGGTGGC"
Not met

Item: "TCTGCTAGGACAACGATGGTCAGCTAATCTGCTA"
Not met

Item: "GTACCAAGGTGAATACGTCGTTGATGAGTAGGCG"
Not met

Item: "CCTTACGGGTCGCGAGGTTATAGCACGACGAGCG"
Not met

Item: "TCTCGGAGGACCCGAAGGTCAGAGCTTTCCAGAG"
Not met

Item: "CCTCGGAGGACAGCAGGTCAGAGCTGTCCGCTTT"
Not met

Item: "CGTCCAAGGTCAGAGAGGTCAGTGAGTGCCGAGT"
Met

Item: "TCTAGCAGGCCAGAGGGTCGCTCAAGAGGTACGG"
Not met

Item: "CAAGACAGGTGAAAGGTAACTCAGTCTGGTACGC"
Not met

Item: "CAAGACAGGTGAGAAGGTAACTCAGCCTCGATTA"
Met

Item: "ATCTCTAGGTAAGAGTCAGTTCAGTGAAGAACGC"
Met

Item: "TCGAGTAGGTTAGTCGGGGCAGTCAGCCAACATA"
Not met

Item: "GCTTGTAGATCAAGTTTAAGAAAGACTAAGCTAA"
Not met

Item: "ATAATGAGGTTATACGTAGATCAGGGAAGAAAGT"
Met

Item: "ACACACAGGTGATGAAGGTAACTCAGGCTATCAT"
Met

Item: "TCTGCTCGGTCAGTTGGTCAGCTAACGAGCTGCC"
Not met

Item: "GGAGCGAGGGCATTCGAGTTGATAGCATGGCGAT"
Not met

Item: "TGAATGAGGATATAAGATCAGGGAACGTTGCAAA"
Not met

Item: "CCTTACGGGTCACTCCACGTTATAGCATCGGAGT"
Met

Item: "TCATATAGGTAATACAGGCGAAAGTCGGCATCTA"
Met

Item: "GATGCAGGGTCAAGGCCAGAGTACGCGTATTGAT"
Not met

Item: "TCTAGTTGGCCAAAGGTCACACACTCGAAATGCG"
Met

Item: "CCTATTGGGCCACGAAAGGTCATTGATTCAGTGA"
Met

Item: "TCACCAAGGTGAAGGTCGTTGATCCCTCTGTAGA"
Not met

Item: "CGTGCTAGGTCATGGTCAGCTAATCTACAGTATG"
Met

Item: "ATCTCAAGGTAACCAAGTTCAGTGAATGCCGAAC"
Met

Item: "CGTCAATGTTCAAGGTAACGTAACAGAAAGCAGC"
Not met

Item: "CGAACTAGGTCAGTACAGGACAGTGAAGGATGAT"
Met

Item: "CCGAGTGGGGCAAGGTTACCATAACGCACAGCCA"
Not met

Item: "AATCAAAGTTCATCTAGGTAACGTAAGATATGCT"
Met

Item: "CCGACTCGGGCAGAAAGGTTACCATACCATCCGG"
Not met

Item: "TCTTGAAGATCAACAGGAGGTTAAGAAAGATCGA"
Met

Item: "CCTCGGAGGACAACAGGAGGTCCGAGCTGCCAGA"
Not met

Item: "TGAGTGAGGTTAAAGATCAGGGAACGTGGCGTCG"
Not met

Item: "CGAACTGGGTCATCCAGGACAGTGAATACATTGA"
Met

Item: "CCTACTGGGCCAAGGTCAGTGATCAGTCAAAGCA"
Met

Item: "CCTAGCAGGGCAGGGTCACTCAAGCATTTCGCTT"
Not met

Item: "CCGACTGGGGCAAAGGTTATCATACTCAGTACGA"
Met

Item: "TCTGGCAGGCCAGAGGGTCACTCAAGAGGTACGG"
Not met

Item: "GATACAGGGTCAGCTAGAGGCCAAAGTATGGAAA"
Met

Item: "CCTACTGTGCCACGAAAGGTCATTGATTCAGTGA"
Met

Item: "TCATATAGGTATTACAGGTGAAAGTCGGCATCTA"
Met

---

Provide the recorded PBM binding z-score for the entries that follow.
test system: LXRb homodimer (NR concentration 270 nM); assay: PBM binding z-score (relative to random genomic background probes); higher = stronger binding; sequences stand for … in GC…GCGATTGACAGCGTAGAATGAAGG

Would you mind telling me what PBM binding z-score value was observed for "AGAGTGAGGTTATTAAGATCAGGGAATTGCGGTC" ?
0.987

Item: "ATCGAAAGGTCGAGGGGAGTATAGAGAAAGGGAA"
1.64

Item: "TGTCAAAGTTCAAAGGTAACGTTAGTATCCACAC"
1.95

Item: "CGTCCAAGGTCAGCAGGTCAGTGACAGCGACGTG"
-0.142

Item: "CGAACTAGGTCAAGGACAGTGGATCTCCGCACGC"
-0.565

Item: "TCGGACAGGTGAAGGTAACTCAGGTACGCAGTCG"
-0.839

Item: "CCTGTTAGTTGACCATAAGGGCAACCGAAGCTCG"
0.499

Item: "TAGCCTAGGTCATGGGACAGTATACCACGCGAAC"
0.331

Item: "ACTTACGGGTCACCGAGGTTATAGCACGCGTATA"
0.402

Item: "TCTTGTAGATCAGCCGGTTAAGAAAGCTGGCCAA"
-0.394

Item: "ACTAGTTGGTCAGCTGAGGTCACCCACAATTCGG"
0.552

Item: "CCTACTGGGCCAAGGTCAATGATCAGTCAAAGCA"
-0.518

Item: "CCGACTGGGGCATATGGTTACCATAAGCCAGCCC"
-1.1

Item: "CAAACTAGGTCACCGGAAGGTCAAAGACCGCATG"
1.03

Item: "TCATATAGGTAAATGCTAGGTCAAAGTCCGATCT"
0.769

Item: "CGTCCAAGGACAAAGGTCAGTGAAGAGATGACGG"
-0.0848

Item: "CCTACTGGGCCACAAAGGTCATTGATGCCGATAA"
0.772

Item: "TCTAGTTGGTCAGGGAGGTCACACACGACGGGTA"
1.66

Item: "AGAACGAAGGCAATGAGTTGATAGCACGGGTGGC"
-1.01

Item: "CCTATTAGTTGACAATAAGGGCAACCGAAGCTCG"
0.647

Item: "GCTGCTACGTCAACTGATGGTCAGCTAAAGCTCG"
-1.1

Item: "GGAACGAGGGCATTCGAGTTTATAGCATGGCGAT"
-0.537

Item: "TCTGCTCGGTCAACGATGGTCAGCTAATCTGCTA"
-0.425

Item: "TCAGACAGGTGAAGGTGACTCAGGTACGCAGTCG"
0.128

Item: "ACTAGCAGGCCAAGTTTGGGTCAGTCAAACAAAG"
-0.904

Item: "TCAGACAGGTGAAGGTCACTCAGGTACGCAGTCG"
0.146

---

system: VDR homodimer (NR concentration 270 nM); test: PBM binding z-score (relative to random genomic background probes); higher = stronger binding; sequences stand for … in GC…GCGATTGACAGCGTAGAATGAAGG
MEASUREMENT KIND: PBM binding z-score

Would you mind telling me what PBM binding z-score value was observed for "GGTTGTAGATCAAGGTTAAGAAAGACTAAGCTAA" ?
0.584

Item: "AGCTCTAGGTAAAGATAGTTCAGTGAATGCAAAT"
0.592

Item: "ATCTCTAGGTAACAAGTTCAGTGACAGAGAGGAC"
2.97

Item: "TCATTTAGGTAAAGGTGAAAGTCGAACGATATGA"
0.0443

Item: "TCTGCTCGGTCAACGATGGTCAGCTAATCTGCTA"
-0.978

Item: "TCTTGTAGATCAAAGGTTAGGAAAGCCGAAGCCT"
-0.493

Item: "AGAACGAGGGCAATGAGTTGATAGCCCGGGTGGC"
2.96

Item: "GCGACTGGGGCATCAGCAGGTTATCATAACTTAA"
-0.259

Item: "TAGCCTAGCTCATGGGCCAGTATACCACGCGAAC"
-0.464

Item: "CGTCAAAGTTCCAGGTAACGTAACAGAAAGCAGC"
0.0156

Item: "CCAGACAGTTGAAAGGTAACTCAGTCTGGTACGC"
-0.355

Item: "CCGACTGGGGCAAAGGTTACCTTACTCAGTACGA"
-0.495
